target: GSK3B (h) (Homo sapiens, UniProt P49841); experiment: GSK3β human kinase assay (glass-fiber filter); assay type: biochemical; details: test concentration of 10^−6M; read-out: C8 score (inhibition of GSK3β human)
Sequence (P49841 whole entry): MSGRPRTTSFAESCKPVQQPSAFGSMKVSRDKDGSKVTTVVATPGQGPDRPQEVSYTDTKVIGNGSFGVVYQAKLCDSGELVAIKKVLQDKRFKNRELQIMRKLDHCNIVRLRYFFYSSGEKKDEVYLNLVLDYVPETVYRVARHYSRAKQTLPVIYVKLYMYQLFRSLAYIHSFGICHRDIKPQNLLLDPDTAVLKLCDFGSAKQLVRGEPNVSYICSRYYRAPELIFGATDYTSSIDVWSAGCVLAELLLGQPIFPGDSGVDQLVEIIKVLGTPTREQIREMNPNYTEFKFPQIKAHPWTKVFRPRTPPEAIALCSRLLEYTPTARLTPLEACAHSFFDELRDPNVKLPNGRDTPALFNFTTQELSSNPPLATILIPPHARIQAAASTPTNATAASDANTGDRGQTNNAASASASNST
measure_name: inhibition at 1 µM

Exam item: Would you mind telling me what inhibition at 1 µM value was observed for N#Cc1cnc2nc1Nc1cccc(c1)OCC(=O)NCCCOc1cccc(c1)N2 [Compound 25] ?
Marked response: 30 to 60%

Exam item: Would you mind telling me what inhibition at 1 µM value was observed for O=C1NCCCCOc2cccc(c2)Nc2ccnc(n2)Nc2cccc1c2 [Compound 19] ?
Marked response: 10 to 30%

Exam item: Would you mind telling me what inhibition at 1 µM value was observed for N#Cc1cnc2nc1Nc1cccc(c1)OCCCNC(=O)COc1cccc(c1)N2 [Compound 28] ?
Marked response: 60 to 80%

Exam item: Would you mind telling me what inhibition at 1 µM value was observed for N#Cc1cnc2nc1Nc1cccc(c1)OCC(=O)NCCCCOc1cccc(c1)N2 [Compound 26] ?
Marked response: 10 to 30%

Exam item: Would you mind telling me what inhibition at 1 µM value was observed for N#Cc1cnc2nc1Nc1cccc(c1)OCCCCOc1cccc(c1)N2 [Compound 2] ?
Marked response: 60 to 80%

Exam item: Would you mind telling me what inhibition at 1 µM value was observed for N#Cc1cnc2nc1Nc1cccc(c1)OCCNC(=O)c1cccc(c1)N2 [Compound 20] ?
Marked response: 60 to 80%

Exam item: Would you mind telling me what inhibition at 1 µM value was observed for O=C1NCCCCCCOc2cccc(c2)Nc2ccnc(n2)Nc2cccc1c2 [Compound 21] ?
Marked response: 10 to 30%

Exam item: Would you mind telling me what inhibition at 1 µM value was observed for COc1ccc2cc1OCCCNC(=O)C(C)(C)NC(=O)Cc1ccc(Cl)cc1Nc1cc(ncn1)N2 [Compound 105] ?
Marked response: 10 to 30%

###

Hi! I'm sharing some pIC50 results obtained with UniProt:Q15303.
Sequence (Q15303 26-1308): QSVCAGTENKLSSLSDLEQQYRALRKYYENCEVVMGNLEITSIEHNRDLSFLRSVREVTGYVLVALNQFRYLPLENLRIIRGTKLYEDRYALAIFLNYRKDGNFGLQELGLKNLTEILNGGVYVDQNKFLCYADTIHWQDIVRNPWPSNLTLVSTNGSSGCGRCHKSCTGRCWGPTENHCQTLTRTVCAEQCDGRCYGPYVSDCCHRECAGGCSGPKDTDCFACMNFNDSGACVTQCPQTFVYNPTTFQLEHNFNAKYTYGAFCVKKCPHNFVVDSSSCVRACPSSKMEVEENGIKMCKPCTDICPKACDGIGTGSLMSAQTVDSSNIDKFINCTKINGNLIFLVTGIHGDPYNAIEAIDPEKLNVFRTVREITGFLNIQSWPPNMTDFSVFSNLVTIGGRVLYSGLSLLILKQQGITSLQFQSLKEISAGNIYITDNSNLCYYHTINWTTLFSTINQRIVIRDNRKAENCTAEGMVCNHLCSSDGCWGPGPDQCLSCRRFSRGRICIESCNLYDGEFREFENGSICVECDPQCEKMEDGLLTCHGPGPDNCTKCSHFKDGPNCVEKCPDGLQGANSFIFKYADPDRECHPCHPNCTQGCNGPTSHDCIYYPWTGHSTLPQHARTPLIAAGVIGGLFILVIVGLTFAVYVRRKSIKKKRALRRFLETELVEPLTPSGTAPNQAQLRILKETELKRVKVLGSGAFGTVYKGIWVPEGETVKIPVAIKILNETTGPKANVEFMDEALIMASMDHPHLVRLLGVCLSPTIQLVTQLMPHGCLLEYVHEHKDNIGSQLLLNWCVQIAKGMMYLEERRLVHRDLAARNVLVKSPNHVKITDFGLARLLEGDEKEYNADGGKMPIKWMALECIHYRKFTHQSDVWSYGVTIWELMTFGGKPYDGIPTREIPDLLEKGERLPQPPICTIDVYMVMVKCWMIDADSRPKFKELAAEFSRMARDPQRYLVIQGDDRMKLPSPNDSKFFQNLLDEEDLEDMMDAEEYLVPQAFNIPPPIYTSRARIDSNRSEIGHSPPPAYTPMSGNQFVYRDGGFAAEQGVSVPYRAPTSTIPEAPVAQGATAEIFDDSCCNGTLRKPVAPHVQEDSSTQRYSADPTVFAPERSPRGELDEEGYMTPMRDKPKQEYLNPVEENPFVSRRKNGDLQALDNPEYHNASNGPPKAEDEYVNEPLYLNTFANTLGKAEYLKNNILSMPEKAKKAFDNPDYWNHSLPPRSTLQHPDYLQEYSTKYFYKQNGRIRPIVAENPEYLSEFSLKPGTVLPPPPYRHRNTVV
pIC50: −log10 of the molar value.

Exam item: Field: pIC50 (UniProt:Q15303). Entry: CN1CC(=O)N2CCC2C(=O)NCc2cccc(c2)Nc2cc(ncn2)Nc2cccc(c2)C1 (stereo not shown)
Marked response: > 6.00

Exam item: Field: pIC50 (UniProt:Q15303). Entry: CCN1CCNC(=O)C(Cc2ccc(C(F)(F)F)cc2)NC(=O)CN(C)Cc2cccc(c2)Nc2cc(ncn2)Nc2cccc(c2)C1 (stereo not shown)
Marked response: > 6.00

Exam item: Field: pIC50 (UniProt:Q15303). Entry: C#CCC1NC(=O)CN(C)Cc2cccc(c2)Nc2cc(ncn2)Nc2cccc(c2)CNC1=O (stereo not shown)
Marked response: > 6.00

Exam item: Field: pIC50 (UniProt:Q15303). Entry: COc1ccc2cc1OCCCNC(=O)CCN1CCC(CC1)N(C)Cc1ccc(Cl)c(c1)Nc1cc(ncn1)N2
Marked response: 5.00 to 6.00

###

molecular target: Lyn (h) (Homo sapiens); experiment: Lyn human kinase assay (glass-fiber filter); assay type: biochemical; conditions: test concentration of 10^−6M; read-out: C10 score (inhibition of Lyn human)
Sequence (P07948 whole entry): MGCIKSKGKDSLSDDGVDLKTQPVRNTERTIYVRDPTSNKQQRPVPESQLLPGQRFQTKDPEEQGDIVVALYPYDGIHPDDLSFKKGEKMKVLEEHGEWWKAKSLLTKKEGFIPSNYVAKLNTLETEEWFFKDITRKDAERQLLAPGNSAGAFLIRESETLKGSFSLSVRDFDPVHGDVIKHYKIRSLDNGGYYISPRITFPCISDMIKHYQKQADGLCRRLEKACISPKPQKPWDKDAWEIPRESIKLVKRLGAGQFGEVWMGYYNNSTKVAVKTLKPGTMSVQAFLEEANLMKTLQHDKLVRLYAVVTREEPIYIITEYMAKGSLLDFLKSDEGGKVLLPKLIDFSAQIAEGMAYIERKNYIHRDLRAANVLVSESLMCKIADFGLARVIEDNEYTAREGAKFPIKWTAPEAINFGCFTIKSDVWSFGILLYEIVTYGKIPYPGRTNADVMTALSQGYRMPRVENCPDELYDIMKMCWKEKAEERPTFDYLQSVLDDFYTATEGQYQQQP
What inhibition at 1 µM was measured for each of the following?

Exam item: Would you mind telling me what inhibition at 1 µM value was observed for O=C1NCCCCOc2cccc(c2)Nc2ccnc(n2)Nc2cccc1c2 ?
Marked response: 10 to 30%

Exam item: Would you mind telling me what inhibition at 1 µM value was observed for N#Cc1cnc2nc1Nc1cccc(c1)OCCCNC(=O)COc1cccc(c1)N2 ?
Marked response: 10 to 30%

Exam item: Would you mind telling me what inhibition at 1 µM value was observed for COc1ccc2cc1OCCCNC(=O)C(C)(C)NC(=O)Cc1ccc(Cl)cc1Nc1cc(ncn1)N2 ?
Marked response: > 80%

Exam item: Would you mind telling me what inhibition at 1 µM value was observed for N#Cc1cnc2nc1Nc1cccc(c1)C(=O)NCCCCCOc1cccc(c1)N2 ?
Marked response: 30 to 60%

Exam item: Would you mind telling me what inhibition at 1 µM value was observed for O=C1CCCCNC(=O)c2cccc(c2)Nc2cc(ncn2)Nc2cccc(c2)CN1 ?
Marked response: 10 to 30%

Exam item: Would you mind telling me what inhibition at 1 µM value was observed for O=C1NCCCCCCNC(=O)c2cccc(c2)Nc2cc(ncn2)Nc2cccc1c2 ?
Marked response: 10 to 30%

Exam item: Would you mind telling me what inhibition at 1 µM value was observed for N#Cc1cnc2nc1Nc1cccc(c1)OCCCCOc1cccc(c1)N2 ?
Marked response: 10 to 30%

Exam item: Would you mind telling me what inhibition at 1 µM value was observed for N#Cc1cnc2nc1Nc1cccc(c1)OCC(=O)NCCOc1cccc(c1)N2 ?
Marked response: 10 to 30%

Exam item: Would you mind telling me what inhibition at 1 µM value was observed for N#Cc1cnc2nc1Nc1cccc(c1)OCC(=O)NCCCOc1cccc(c1)N2 ?
Marked response: 10 to 30%

Exam item: Would you mind telling me what inhibition at 1 µM value was observed for O=C1CCc2cccc(c2)Nc2cc(ncn2)Nc2cccc(c2)CN2CCN1CC2 ?
Marked response: 30 to 60%

Exam item: Would you mind telling me what inhibition at 1 µM value was observed for O=C1NCCCCCCOc2cccc(c2)Nc2ccnc(n2)Nc2cccc1c2 ?
Marked response: 10 to 30%

Exam item: Would you mind telling me what inhibition at 1 µM value was observed for COc1ccc2cc1OCCCNCCOc1ccc(Cl)cc1Nc1cc(ncn1)N2 ?
Marked response: > 80%

Exam item: Would you mind telling me what inhibition at 1 µM value was observed for COc1ccc2c(c1)OCCCCCCOc1ccc(Cl)cc1Nc1cc(ncn1)N2 ?
Marked response: 10 to 30%

Exam item: Would you mind telling me what inhibition at 1 µM value was observed for COc1ccc2cc1OCCNC(=O)CNC(=O)Cc1ccc(Cl)cc1Nc1cc(ncn1)N2 ?
Marked response: > 80%

Exam item: Would you mind telling me what inhibition at 1 µM value was observed for CC1(C)NC(=O)Cc2ccc(Cl)cc2Nc2cc(ncn2)Nc2ccc(OCCCN3CCOCC3)c(c2)OCCNC1=O ?
Marked response: > 80%

Exam item: Would you mind telling me what inhibition at 1 µM value was observed for O=C1NCc2cccc(c2)Nc2ccnc(n2)Nc2cccc1c2 ?
Marked response: 10 to 30%

Exam item: Would you mind telling me what inhibition at 1 µM value was observed for N#Cc1cnc2nc1Nc1cccc(c1)OCC(=O)NCCCCOc1cccc(c1)N2 ?
Marked response: 30 to 60%

Exam item: Would you mind telling me what inhibition at 1 µM value was observed for O=C1NCCCCCOc2cccc(c2)Nc2ccnc(n2)Nc2cccc1c2 ?
Marked response: 10 to 30%

Exam item: Would you mind telling me what inhibition at 1 µM value was observed for O=C1COc2cccc(c2)Nc2nccc(n2)Nc2cccc(c2)OCCCCN1 ?
Marked response: 10 to 30%

###

target: cSRC (h) (Homo sapiens, UniProt P12931); test: cSRC human kinase assay (glass-fiber filter); type: biochemical; conditions: test concentration of 10^−6M; read-out: C3 score (inhibition of cSRC human)
Sequence (P12931 whole entry): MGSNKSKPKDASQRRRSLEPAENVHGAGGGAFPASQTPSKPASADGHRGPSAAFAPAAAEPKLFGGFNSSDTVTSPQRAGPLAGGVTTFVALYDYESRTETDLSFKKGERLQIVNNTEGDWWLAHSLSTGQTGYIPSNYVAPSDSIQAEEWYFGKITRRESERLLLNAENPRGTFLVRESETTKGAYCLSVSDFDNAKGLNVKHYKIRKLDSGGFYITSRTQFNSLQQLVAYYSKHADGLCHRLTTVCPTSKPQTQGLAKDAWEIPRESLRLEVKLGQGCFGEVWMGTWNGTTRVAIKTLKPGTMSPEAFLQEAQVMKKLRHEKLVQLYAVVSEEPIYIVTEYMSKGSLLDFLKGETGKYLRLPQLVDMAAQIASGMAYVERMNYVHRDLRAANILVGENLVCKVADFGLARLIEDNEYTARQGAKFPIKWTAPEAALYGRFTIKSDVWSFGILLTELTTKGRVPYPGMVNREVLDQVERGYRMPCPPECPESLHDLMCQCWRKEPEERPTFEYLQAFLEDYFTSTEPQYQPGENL
What inhibition at 1 µM was measured for each of the following?

Exam item: Field: inhibition at 1 µM (cSRC (h) (Homo sapiens, UniProt P12931)). Entry: N#Cc1cnc2nc1Nc1cccc(c1)C(=O)NCCOc1cccc(c1)N2 [Compound 3]
Marked response: 10 to 30%

Exam item: Field: inhibition at 1 µM (cSRC (h) (Homo sapiens, UniProt P12931)). Entry: N#Cc1cnc2nc1Nc1cccc(c1)OCCCCOc1cccc(c1)N2 [Compound 2]
Marked response: 30 to 60%

Exam item: Field: inhibition at 1 µM (cSRC (h) (Homo sapiens, UniProt P12931)). Entry: N#Cc1cnc2nc1Nc1cccc(c1)OCCCNC(=O)COc1cccc(c1)N2 [Compound 28]
Marked response: 30 to 60%

Exam item: Field: inhibition at 1 µM (cSRC (h) (Homo sapiens, UniProt P12931)). Entry: COc1ccc2cc1OCCNC(=O)CNC(=O)Cc1ccc(Cl)cc1Nc1cc(ncn1)N2 [Compound 103]
Marked response: > 80%

Exam item: Field: inhibition at 1 µM (cSRC (h) (Homo sapiens, UniProt P12931)). Entry: O=C1NCCCCCOc2cccc(c2)Nc2ccnc(n2)Nc2cccc1c2 [Compound 22]
Marked response: 10 to 30%

Exam item: Field: inhibition at 1 µM (cSRC (h) (Homo sapiens, UniProt P12931)). Entry: N#Cc1cnc2nc1Nc1cccc(c1)OCC(=O)NCCCOc1cccc(c1)N2 [Compound 25]
Marked response: 10 to 30%

Exam item: Field: inhibition at 1 µM (cSRC (h) (Homo sapiens, UniProt P12931)). Entry: O=C1NCCCCOc2cccc(c2)Nc2ccnc(n2)Nc2cccc1c2 [Compound 19]
Marked response: 10 to 30%

Exam item: Field: inhibition at 1 µM (cSRC (h) (Homo sapiens, UniProt P12931)). Entry: O=C1NCc2cccc(c2)Nc2ccnc(n2)Nc2cccc1c2 [Compound 24]
Marked response: 10 to 30%

Exam item: Field: inhibition at 1 µM (cSRC (h) (Homo sapiens, UniProt P12931)). Entry: O=C1COc2cccc(c2)Nc2cc(ncn2)Nc2cccc(c2)CN2CCN1CC2 [Compound 42]
Marked response: 10 to 30%

Exam item: Field: inhibition at 1 µM (cSRC (h) (Homo sapiens, UniProt P12931)). Entry: COc1ccc2c(c1)OCCCCCCOc1ccc(Cl)cc1Nc1cc(ncn1)N2 [Compound 34]
Marked response: 10 to 30%
